Data provenance: patent US20220227830A1

Target: full-length human GLP-1R with an N-terminal FLAG tag (human, UniProt P43220 24-463)
Assay: cell-based or functional assay
Starred links: 1 amine or outer side, 2 acyl side, 3 side chain; linkers in the order of their positions; H or OH if unused. Non-standard residues stand in square brackets, D forms with d. Groups on a side chain read outwards from the residue. No end group written: not given here. *: point of attachment. GGEEE‑C15DA = Gly-Gly-Glu-Glu-Glu linker (GGEEE) joined to a C15 diacid lipid (C15DA), on the Lys side chain; G2E3 = linker of 2 Gly and 3 Glu (read GGEEE); C16 diacid = O=C(O)CCCCCCCCCCCCCCC(=O)*; C15 diacid = O=C(O)CCCCCCCCCCCCCC(=O)*; γGlu = O=C(O)[C@H](CCC(=O)[*:2])N[*:1]; NMeY = CN[C@@H](Cc1ccc(O)cc1)C(=O)O; AEEA = NCCOCCOCC(=O)O; Aib = CC(C)(N)C(=O)O
result.type: Human GLP1R cAMP HEK293T EC50 (nM)

INSERT INTO assay_data (binder, result) VALUES
  ('Me-Y[Aib]EGTFISDYSIAKDR[Aib]AQ[Aib]DFVNWLLAQSPSSGAPPPG-OH (not fully specified (residues 1, 14)) [Compound 152]', 302),
  ('[NMeY][Aib]EGTFISDYSIAK([AEEA-γGlu-γGlu-γGlu-C15 diacid])DR[Aib]AQ[Aib]NFVNWLLA[Aib]K-OH (not fully specified) [Compound 39]', 398),
  ('[NMeY][Aib]EGTFISDYSIALDR[Aib]K([G2E3-C15 diacid])Q[Aib]NFVNWLLAQK-OH (not fully specified (N-terminus)) [Compound 42]', 237),
  ('[NMeY][Aib]EGTFISDYSIALDR[Aib]AQ[Aib]KFVNWLLAQS-NH2 (not fully specified (residue 21)) [Compound 85]', 63.1),
  ('[NMeY][Aib]EGTFISDYSIALDR[Aib]K(GGEEE‑C15DA)Q[Aib]NFVNWLLAQSPSSGAPPPS-NH2 [Compound 105]', 1000),
  ('Me-Y[Aib]EGTFISDYSIALDR[Aib]AQ[Aib]K([AEEA-AEEA-γGlu-γGlu-C15 diacid])FVNWLLAQSG-OH [Compound 149]', 25.7),
  ('[NMeY][Aib]EGTFISDYSI[Aib]LDR[Aib]AQ[Aib]NFVNWLLAQKPSSGAPPPS-NH2 (not fully specified (residue 30)) [Compound 123]', 22.9),
  ('[NMeY][Aib]EGTFISDYSIALDR[Aib]AQ[Aib]K([G2E3-C15 diacid])FVNWLLAQK-NH2 [Compound 31]', 0.776),
  ('Me-Y[Aib]EGTFISDYSIAKDS[Aib]AQ[Aib]DFVNWLLAQRPSSGAPPPS-NH2 (not fully specified (residues 1, 14)) [Compound 153]', 389),
  ('[NMeY][Aib]EGTFISDYSI[Aib]LDRK([AEEA-AEEA-γGlu-γGlu-C16 diacid])AQ[Aib]NFVNWLLAQRPSSGAPPPS-NH2 [Compound 145]', 912),
  ('[NMeY][Aib]EGTFISDYSIALDR[Aib]KQ[Aib]NFVNWLLAQSGGGGS-NH2 (not fully specified (residue 18)) [Compound 133]', 1000),
  ('[NMeY][Aib]EGTFISDYSIALDR[Aib]K([AEEA-γGlu-γGlu-γGlu-C15 diacid])Q[Aib]NFVNWLLAQK (not fully specified (N-terminus)) [Compound 44]', 631),
  ('[NMeY][Aib]EGTFISDYSI[Aib]LDRK([AEEA-AEEA-γGlu-γGlu-C15 diacid])AQ[Aib]NFVNWLLAQRGGGGS-NH2 [Compound 135]', 646),
  ('[NMeY][Aib]EGTFISDYSI[Aib]LDR[Aib]AQ[Aib]KFVNWLLAQRGGGGS-NH2 (not fully specified (residue 21)) [Compound 114]', 115),
  ('[NMeY][Aib]EGTFISDYSIALDRIK([AEEA-AEEA-γGlu-C16 diacid])Q[Aib]NFVNWLLAQK [Compound 8]', 100),
  ('[NMeY][Aib]EGTFISDYSIALDR[Aib]KQ[Aib]DFVNWLLAQSPSSGAPPPS-NH2 (not fully specified (residue 18, N-terminus)) [Compound 106]', 120),
  ('[NMeY][Aib]EGTFISDYSIALDR[Aib]AQ[Aib]K([AEEA-AEEA-γGlu-γGlu-C15 diacid])FVNWLLAQR (not fully specified (N-terminus, C-terminus)) [Compound 15]', 155);
